The measurements presented in this section are drawn from patent EP4755881A1.

Listed below: half-life values for each entry.
- test.description: Pharmacokinetic study in rats (oral gavage and tail vein injection, plasma LC-MS/MS)
- Type: in vivo
- assay.conditions: rat, SD rats, Po, 1 mg/kg
measurement.type: half-life (h)

CCCCN(C)C(=O)OCc1c(-c2ccc(C#CC3(CC(=O)O)CC3)c(F)n2)nnn1C	6.6
CCC(F)(F)[C@@H](C)OC(=O)Nc1c(-c2ccc(C#CC3(CC(=O)O)CC3)c(C)n2)noc1C	3.61
Cc1nc(-c2nnn(C)c2NC(=O)OC(C)CC2CC2)ccc1C#CC1CCC1C(=O)O (single isomer, unassigned)	5.33

###

Catalogue of half-life values
- test.description: Pharmacokinetic study in rats (oral gavage and tail vein injection, plasma LC-MS/MS)
- Format: in vivo
- assay.conditions: rat, SD rats, Po, 1 mg/kg
- Procedure: Male SPF-grade SD rats (Beijing Vital River Laboratory Animal Technology Co., Ltd.) with a body weight range of 200 to 250 g were used. […] The concentration of compounds in plasma was detected by LC-MS/MS (AB SCIEX Qtrap4500). Data were analyzed using WinNonlin (version 5.2.1 Pharsight, Mountain View, CA) with a non-compartmental model to obtain PK parameters (including Cmax, C0, Tmax, AUClast, AUCinf, T1/2, etc.). […]
measurement.type: half-life

CCC(F)(F)[C@@H](C)OC(=O)Nc1c(-c2ccc(C#CC3(CC(=O)O)CC(OC)C3)c(C)n2)noc1C (some centres unmarked)	2.77 h
Cc1nc(-c2nnn(C)c2NC(=O)O[C@H](C)CC(C)(F)F)ccc1C#C[C@H]1CCC[C@@H]1C(=O)O (single isomer, unassigned)	4.4 h
Cc1nc(-c2nnn(C)c2NC(=O)OC(C)CC(C)(F)F)ccc1C#CC1(CC(=O)O)CC1 (racemic)	8.49 h
CCCc1ccnc(NCc2c(-c3ccc(C#CC4(CC(=O)O)CC4)c(C)n3)nnn2C)n1	5.98 h
CCc1nc(-c2noc(C)c2NC(=O)O[C@H](C)C(F)(F)CC)ccc1C#CC1(CC(=O)O)CC(OC)C1 (some centres unmarked)	3.75 h
Cc1nc(-c2nnn(C)c2NC(=O)O[C@H](C)CC(C)(C)F)ccc1C#CC1(CC(=O)O)CC1	10.2 h
CCCC(C)OC(=O)Nc1c(-c2ccc(C#CC3CCCC3C(=O)O)c(C)n2)nnn1C (single isomer, unassigned)	3.49 h
CCC(F)(F)CC(C)OC(=O)Nc1c(-c2ccc(C#CC3CCC3C(=O)O)c(C)n2)nnn1C (single isomer, unassigned)	6.66 h
CCC(F)(F)[C@@H](C)OC(=O)Nc1c(-c2ccc(C#CC3(CC(=O)O)CC(OC)C3)c(C(F)(F)F)n2)nnn1C (some centres unmarked)	5.47 h
Cc1nc(-c2nnn(C)c2COC(=O)N(C)CC2CCC2)ccc1C#CC1CC1C(=O)O (racemic)	2.53 h
Cc1nc(-c2nnn(C)c2NC(=O)OC(C)C23CC(C2)C3)ccc1C#CC1(CC(=O)O)CC1 (racemic)	9.12 h
CCc1nc(-c2nnn(C)c2NC(=O)O[C@H](C)CC(C)(F)F)ccc1C#CC1(CC(=O)O)CC1	14 h
Cc1nc(-c2nnn(C)c2NC(=O)O[C@H](C)c2ccccc2Cl)ccc1C#C[C@H]1CC[C@@H]1C(=O)O	5.31 h
CCC(F)(F)[C@@H](C)OC(=O)Nc1c(-c2ccc(C#CC3(CC(=O)O)CC(OC)C3)c(C)n2)nnn1C (some centres unmarked)	6.39 h
